Readings of GI50 for the listed compounds
System: M19-MEL
experiment_notes: NCI tumour cell line growth inhibition, 48 h
Calls of active or inactive are those of the source. Rule as the data show it: active = GI50 up to about 1.1 µM and inactive = higher.
measure: GI50

1. COC(=O)C1=CC(O)CCC1c1ccc(OC)cc1 (stereo unspecified) ... > 100 µM (inactive)
2. CCOC(=O)C1=C(C)N(Cc2ccccc2)C(C)=C(C(=O)OCC)C1c1ccccc1O ... 27.4 µM (inactive)
3. O=C(c1ccc(Cl)cc1)N(C(=S)N1CCN(c2ccccc2)CC1)c1ccccc1 ... > 100 µM (inactive)
4. O=C1c2ccccc2C2(Br)C(=O)c3ccccc3C12 (stereo unspecified) ... > 100 µM (inactive)
5. OC1=CN=C(C2CC2)Oc2ccccc21 ... > 100 µM (inactive)
6. CCOC(=O)/C(=C\c1ccccc1)C(=O)CCN1CCOCC1 ... 3.62 µM (inactive)

* * *

Readings of GI50 for the listed compounds
System: OVCAR-5
experiment_notes: NCI tumour cell line growth inhibition, 48 h
The source made the active and inactive calls. Rule as the data show it: active = GI50 up to about 1.1 µM and inactive = higher.
measure: GI50

1. C#CC1(O)CC(c2ccccc2)N(C)C(c2ccccc2)C1 (stereo unspecified) ... > 100 µM (inactive)
2. COC(=O)c1ccccc1C1CN=NC12Cc1cccc(C)c1C2=O (stereo unspecified) ... > 100 µM (inactive)
3. Cc1cc(=O)oc2cc3oc(N(C)c4ccccc4)nc(=O)c3cc12 ... > 100 µM (inactive)
4. Clc1cccc(C2N3CCCCC3[C@@H]3c4[nH]c5ccccc5c4CCN23)c1 (stereo partly specified) ... 21 µM (inactive)
5. CCOP(=O)(OCC)/C(=C/n1c(=S)[nH]c2ccccc21)C(=O)OC ... > 100 µM (inactive)
6. C1CCN2CC34CC(CC5CCCN(C6CCCC3N6)C54)C2C1 (stereo unspecified) ... > 100 µM (inactive)

* * *

Readings of GI50 for the listed compounds
Tested on: SF-539
experiment_notes: NCI tumour cell line growth inhibition, 48 h
The source made the active and inactive calls. Rule as the data show it: active = GI50 up to about 1.1 µM and inactive = higher.
measure: GI50

1. C1CCN2CC34CC(CC5CCCN(C6CCCC3N6)C54)C2C1 (stereo not given) ... > 100 µM (inactive)
2. c1ccc(/N=c2/[nH]c3ccccc3s/c2=N/c2ccccc2)cc1 ... > 100 µM (inactive)
3. Cn1c(N)cc(=O)nc1N ... > 100 µM (inactive)
4. C[C@@H]1C[C@@H]2OC(=O)[C@]3(C)[C@H]2[C@@H](OC3(C)O)[C@]2(C)C(=O)C=C[C@@H]12 (stereo not given in full) [TENULIN] ... 32.1 µM (inactive)
5. Cc1ccc(NC(=O)CCc2nnc(S)[nH]2)cc1 ... > 100 µM (inactive)

* * *

Tested on: SK-MEL-28
experiment_notes: NCI tumour cell line growth inhibition, 48 h
Active and inactive are the calls of the source. No stated cut-off is given here; in the data, active = GI50 up to about 1.1 µM and inactive = higher.
Labels: 1 (active), 0 (inactive)

1. C(CCCCc1nnc(N2CCOCC2)o1)CCCc1nnc(N2CCOCC2)o1 ... 0
2. CS/C(=N\S(=O)(=O)c1ccc(Cl)cc1)NCCCCN/C(=N/S(=O)(=O)c1ccc(Cl)cc1)SC ... 0
3. S=C=NC1CCC(c2cc3ccccc3s2)(N2CCCCC2)CC1 (stereo not given) ... 0
4. CCOC(=O)C1=C(C)N(Cc2ccccc2)C(C)=C(C(=O)OCC)C1c1ccccc1O ... 0
5. COc1cc(C2c3cc4c(cc3OC(C)(N3CCCC3)C2C)OCO4)cc(OC)c1OC (stereo not given) ... 1
6. C[N+]1(C)CCc2cc(O)c(O)cc2C1Cc1ccc(O)c(O)c1 (stereo not given) ... 0
7. COc1ccc(C(C)NNC(=O)c2cc[n+]([BH2-]C#N)cc2)cc1F (stereo not given) ... 0
8. CCc1nc(N)nc(N)c1-c1ccc2nnn(O)c2c1 ... 0
9. COc1ccc(CCNC2=CC(=O)c3ncccc3C2=O)cc1OC ... 0
10. Cc1ccc(C(=O)c2[nH]c(NCc3ccccc3)c(C(=S)Nc3ccccc3)c2N)cc1 ... 0
11. COC(=O)C1(C(C)C)CCc2c(OC)ccc(OC)c2C1=O (stereo not given) ... 0
12. CC(SC(=S)N1CCCC1)C(=O)Nc1nnc(-c2ccc(Cl)cc2)o1 (stereo not given) ... 0
13. O=C(/C=C/c1ccc([N+](=O)[O-])cc1)N1CCN(CCOC(c2ccc(F)cc2)c2ccc(F)cc2)CC1 ... 0
14. O=C(N/C(=C\c1ccc([N+](=O)[O-])cc1)c1nc2ccccc2[nH]1)c1ccccc1 ... 0
15. O=C1NC(=O)C2C(=O)NC(=O)C1C2Cc1ccco1 (stereo not given) ... 0
16. Cc1cn(C2CC(O)C(Cn3nncc3Cn3nc(Br)c(=O)[nH]c3=O)O2)c(=O)[nH]c1=O (stereo not given) ... 0
17. Oc1cccc(/C=N/N=c2/[nH][nH]/c(=N/N=C/c3cccc(O)c3)c3ccccc23)c1 ... 0
18. CN(C)CC(C)(C)C(/C=C/c1ccccc1)=N\Nc1ccccc1 ... 0
19. CSc1ccc2c(cc1=O)C(NC(=O)c1cc(O)c(OC(=O)O)c(O)c1)CCc1cc(O)c(O)c(O)c1-2 (stereo not given) ... 0
20. O=C(CCN1CCN(c2cccc(Cl)c2)CC1)N1CCc2c([nH]c3ccccc23)C1c1cccnc1 (stereo not given) ... 0
